testTarget: Benzodiazepine receptors; peripheral & central (Rattus norvegicus) (UniProt O09028+P15431+P18506+P18508+P19969+P20236+P23574+P23576+P28471+P28473+P30191+P62813+P63079+P63138+Q91ZM7+Q9ES14+P16257)
protocolDetails: Ratio of inhibition for peripheral benzodiazepine receptor of rat ovary and central benzodiazepine GABA-A receptor
Assay type: tissue-based
Design: scale not given here
conditionSummary: Female gonad
valueType: Selectivity index
Answer using only a numeral; do not append any unit.

Completed entries (count: 3):
>  <compound>
CCCCCCN(CCCCCC)C(=O)Cc1c(-c2ccc(Cl)cc2)nc2c(Cl)cc(Cl)cn12

>  <valueType>
Selectivity index

>  <reportedResult>
0.584

$$$$
>  <compound>
C=CCN(CC=C)C(=O)Cc1c(-c2ccc(Cl)cc2)nc2c(Cl)cc(Cl)cn12

>  <valueType>
Selectivity index

>  <reportedResult>
3.25

$$$$
>  <compound>
CN(CCc1ccccn1)C(=O)Cc1c(-c2ccc(Cl)cc2)nc2c(Cl)cc(Cl)cn12

>  <valueType>
Selectivity index

>  <reportedResult>
0.294

$$$$

# input compound: CCOC(=O)C1CCCN(C(=O)Cc2c(-c3ccc(Cl)cc3)nc3c(Cl)cc(Cl)cn23)C1 (centres undefined) ; wanted: its Selectivity index
0.597

====

testTarget: Translocator protein (Rattus norvegicus)
Sequence (P16257 whole entry, looked up): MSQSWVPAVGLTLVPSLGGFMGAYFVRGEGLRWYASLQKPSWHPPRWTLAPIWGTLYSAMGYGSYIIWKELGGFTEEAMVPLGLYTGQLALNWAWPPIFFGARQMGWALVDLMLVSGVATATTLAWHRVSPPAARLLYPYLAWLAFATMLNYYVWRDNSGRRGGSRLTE
protocolDetails: Inhibitory concentration against peripheral benzodiazepine receptor of rat ovary
Type: tissue-based, Female gonad
valueType: pIC50
As a rule, pIC50 stands for the negative log10 of the concentration, concentration in M.

Completed entries (count: 3):
>  <smilesCode>
CCCCN(CCCC)C(=O)Cc1c(-c2ccc(Cl)cc2)nc2c(Cl)cc(Cl)cn12

>  <valueType>
pIC50

>  <reportedResult>
7.73

$$$$
>  <smilesCode>
CCCCN(CCCC)C(=O)Cc1c(-c2ccc(Cl)cc2)nc2ccc(Cl)cn12

>  <valueType>
pIC50

>  <reportedResult>
8.17

$$$$
>  <smilesCode>
CN(C(=O)Cc1c(-c2ccc(Cl)cc2)nc2c(Cl)cc(Cl)cn12)c1ccccc1

>  <valueType>
pIC50

>  <reportedResult>
8.77

$$$$

// moving on: another record for pIC50
# input compound: O=C(Cc1c(-c2ccccc2)nc2c(Cl)cc(Cl)cn12)NC1CCCCC1 ; wanted: its pIC50
5.88

====

Items are presented alongside their recorded Selectivity index.
testTarget: Benzodiazepine receptors; peripheral & central (Rattus norvegicus) (UniProt O09028+P15431+P18506+P18508+P19969+P20236+P23574+P23576+P28471+P28473+P30191+P62813+P63079+P63138+Q91ZM7+Q9ES14+P16257)
protocolDetails: Ratio of inhibition for peripheral benzodiazepine receptor of rat ovary and central benzodiazepine GABA-A receptor
Type: tissue-based
Parameters: scale not given here
conditionSummary: Female gonad
Answer using only a numeral; do not append any unit.

Completed entries (count: 2):
>  <smilesCode>
O=C(Cc1c(-c2ccc(Cl)cc2)nc2c(Cl)cc(Cl)cn12)N1CCCCC1

>  <valueType>
Selectivity index

>  <reportedResult>
2.04

$$$$
>  <smilesCode>
O=C(Cc1c(-c2ccc(Cl)cc2)nc2c(Cl)cc(Cl)cn12)NC1CCCCC1

>  <valueType>
Selectivity index

>  <reportedResult>
0.977

$$$$

# input compound: CCCCN(Cc1ccccc1)C(=O)Cc1c(-c2ccccc2)nc2c(Cl)cc(Cl)cn12 ; wanted: its Selectivity index
2.05
